# Test system: HCT-116
# Assay Explanation: NCI tumour cell line growth inhibition, 48 h
The source made the active and inactive calls. Rule as the data show it: active = GI50 up to about 1.1 µM and inactive = higher.
Give one outcome, nothing more. List: 1 = active, -1 = inactive

                                   molecule  assigned_category
0  Cc1cn(C2CC(N(O)C(N)=O)C(CO)O2)c(=O)[nH]c1=O (configuration not stated)                 -1
1  COC(=O)C1=CC2OC1(C)CCC2=O (configuration not stated)                 -1
2     COc1ccc(N/N=C2\CCOc3ccc(C)cc3C2=O)cc1                 -1
3  CC12C(=O)OC(=O)C1(C)C1C=CC2O1 (configuration not stated)                 -1
4                O=P(O)(O)c1ccccc1Oc1ccccc1                 -1

Here's the next entry for you.
**Q:** Can you look up the reported call for O=c1c2ccccc2n2n1CC(O)C2 (configuration not stated) for me?
**A:** -1

---

# Test system: OVCAR-4
# Assay Explanation: NCI tumour cell line growth inhibition, 48 h
The source made the active and inactive calls. Rule as the data show it: active = GI50 up to about 1.1 µM and inactive = higher.
Give one outcome, nothing more. List: active, inactive

Record excerpt, results attached:
Compound	Assigned Category
CC(C)N1CN(C(C(=O)N[C@@H]2C(=O)N3C2SC(C)(C)C3C(=O)O)c2ccccc2)CSC1=S (some centres undefined)	inactive
CC(O)CN1c2ccccc2Sc2ccc(Cl)cc21 (centres undefined)	inactive

**Q:** Can you look up the reported call for CN1C=C(C(N)=O)Cc2ccsc21 for me?
**A:** inactive

**Q:** Check O=[N+]([O-])c1cc(C(F)(F)F)cc2c1SC1=Nc3ccccc3CN12 too.
**A:** inactive

**Q:** Check COC(=O)c1ccc(/C=N/c2cc(C)nn2-c2ccccc2)cc1 too.
**A:** inactive

---

# Test system: UO-31
# Assay Explanation: NCI tumour cell line growth inhibition, 48 h
Activity calls are given as the source filed them. No stated cut-off is given here; in the data, active = GI50 up to about 1.1 µM and inactive = higher.
Give one outcome, nothing more. List: active, inactive

Record excerpt, results attached:
>>> print(df.to_string())
                                   compound  measured_on  assigned_category
0       CCOC(=O)c1cc(-c2ccc(OC)c(OC)c2)cn1C        UO-31           inactive
1  N#Cc1c(C#N)c(-c2ccco2)n(/N=C/c2ccco2)c1N        UO-31           inactive
2  CC12CN(CC[N+](C)(C)C)CC1(C)C1CCC2O1 (stereo not given)        UO-31           inactive
3  COc1cc(C2c3cc4c(cc3[C@@H](Nc3ccc(F)cc3)C3COC[C@H]23)OCO4)cc(OC)c1O (stereo not given in full)        UO-31             active

Here's the next entry for you.
**Q:** Can you look up the reported call for CCOC(=O)/C1=C(\C)N(c2ccc(C)cc2)C(=O)c2ccccc2C(=O)c2c(O)ccc(O)c21 for me?
**A:** inactive

---

Below, each entry is listed with its recorded GI50.
# Test system: SNB-19
# Assay Explanation: NCI tumour cell line growth inhibition, 48 h
Active and inactive are the calls of the source. Cut-off read from the data, not from the text of the source: active = GI50 up to about 1.1 µM and inactive = higher.

In [3]: df
Out[3]:
                                   molecule  endpoint_label             observed
0                        COc1ccc2n[se]nc2c1            GI50   69.2 µM (inactive)
1                   ClC[Si]12OCCN(CCO1)CCO2            GI50  > 100 µM (inactive)
2  C[C@@]12CCCc3coc(c31)C(=O)c1cc3c(cc12)C(=O)C=CC3=O            GI50   43.8 µM (inactive)
3  CCCCCCCCCCCCC(O)[C@H]1CC[C@H](C(O)CCCCCC(=O)CCCCC2CC(C(C)=O)C(=O)O2)O1 (stereo not given in full)            GI50    9.4 µM (inactive)

**Q:** Enter reported GI50 observed with SNB-19 for Clc1ccc(Cc2nc3cc(Cl)c(Cl)cc3n2CC2CCCN3CCCCC23)cc1Cl (stereo not given)
**A:** 2.9 µM (inactive)

---

# Tested on: SF-295
# Assay Explanation: NCI tumour cell line growth inhibition, 48 h
Active and inactive are the calls of the source. Rule as the data show it: active = GI50 up to about 1.1 µM and inactive = higher.
Endpoint Label: GI50

Consider the reported GI50 for these molecules:
>>> df
                                   molecule             observed
0  CC(C)(Cl)C(Br)CCC(C)(Br)C(Br)CBr (configuration not stated)   17.7 µM (inactive)
1  CC(=O)NNc1nc(C)c(C(/C=C/c2ccc([N+](=O)[O-])cc2)=N/NC(N)=S)s1  > 100 µM (inactive)
2  O=S(=O)(O)c1ccc2c(/N=N/c3ccccc3Cl)c(O)ccc2c1  > 100 µM (inactive)
3  CCOC(=O)Nc1ccc(S(=O)(=O)OC)cc1.CCOC(=O)Nc1ccc(S(=O)(=O)OC)cc1.Cc1cn(C2CC(O)C(CO)O2)c(=O)[nH]c1=O  > 100 µM (inactive)
4     O=c1c2cc([N+](=O)[O-])ccc2nc2n1CCCCC2  > 100 µM (inactive)
5  CC(O)CN1c2ccccc2Sc2ccc(Cl)cc21 (configuration not stated)   > 10 µM (inactive)

Would you kindly look at the next entry?
**Q:** Given COc1cc(OC)c(OC)cc1/C=N/NC(=O)N/N=C/c1cc(OC)c(OC)cc1OC , state its recorded GI50.
**A:** > 100 µM (inactive)

---

# Test system: MCF7
# Assay Explanation: NCI tumour cell line growth inhibition, 48 h
Calls of active or inactive are those of the source. Cut-off read from the data, not from the text of the source: active = GI50 up to about 1.1 µM and inactive = higher.
Below, each entry is listed with its recorded GI50.

>>> print(df.to_string())
                                   compound              observed
0  Cc1cc(Cl)ccc1Nc1sc(C(=O)c2cc3cc(Cl)ccc3o2)c(N)c1C#N    8.38 µM (inactive)
1  N#Cc1c2c(c(Nc3ccc(F)cc3)n3c1nc1ccccc13)CCCC2  > 32.5 µM (inactive)
2  BrC(Br)=C1C(=C(Br)Br)C(Br)C1Br (centres undefined)     0.193 µM (active)
3  CCCNC(=O)N1CC(CN2CCN(c3ccccc3)CC2)O/C1=N/C(=O)Nc1ccccc1 (centres undefined)   > 100 µM (inactive)
4  CC1(C)C[C@H](O)[C@H](O)[C@]23C(=O)O[C@H](O)[C@H]2C(C=O)=CC[C@@H]13   > 100 µM (inactive)

**Q:** Given O=C1OCc2c1cc1cc3c(cc1c2-c1ccc2c(c1)OCO2)OCO3.O=C1OCc2cc3cc4c(cc3c(-c3ccc5c(c3)OCO5)c21)OCO4 , state its recorded GI50.
**A:** 15.4 µM (inactive)

**Q:** Check O=c1oc2ccc([N+](=O)[O-])cc2cc1-c1csc(-c2ccccc2)n1 too.
**A:** > 100 µM (inactive)

**Q:** Check COc1cc(/C=C2\C[C@H]3[C@@H]4CCc5cc(O)ccc5[C@H]4CC[C@]3(C)C2=O)cc(OC)c1OC too.
**A:** 52.6 µM (inactive)

**Q:** Check CCN(CC)C1Oc2cc3c(cc2C(c2ccc(OC)cc2)C1C)OCO3 (centres undefined) too.
**A:** 20.9 µM (inactive)

---

# System: HL-60
# Assay Explanation: NCI tumour cell line growth inhibition, 48 h
The source made the active and inactive calls. Cut-off read from the data, not from the text of the source: active = GI50 up to about 1.1 µM and inactive = higher.
Endpoint Label: GI50

Consider the reported GI50 for these compounds:
>>> df
                                   compound  measured_on  endpoint_label            observed
0  CCN(CC)c1ccc2c(c1)Oc1ccc(N(CC)CC)cc1C21Oc2ccccc2-c2c1c1ccccc1n2CC (stereo not given)        HL-60            GI50  1.25 µM (inactive)
1  O=C1OCc2c1cc1cc3c(cc1c2-c1ccc2c(c1)OCO2)OCO3.O=C1OCc2cc3cc4c(cc3c(-c3ccc5c(c3)OCO5)c21)OCO4        HL-60            GI50  34.8 µM (inactive)

**Q:** Given COc1ccc(C2C(Cl)C(=O)N2NC(=O)c2ccc(NC(C)=O)cc2)cc1OC (stereo not given) , state its recorded GI50.
**A:** > 100 µM (inactive)

**Q:** Check CCOC(=O)NN(C(=O)OCC)c1c(C)cc(C)cc1C too.
**A:** > 100 µM (inactive)

**Q:** Check C[N+](C)([O-])CCC=C1c2ccccc2CCc2ccccc21 too.
**A:** 12.6 µM (inactive)

**Q:** Check CCOP(=O)(OCC)C(c1ccccc1)N(C(=O)NC(F)(F)F)c1cccc(F)c1 (stereo not given) too.
**A:** > 100 µM (inactive)

**Q:** Check O=C1/C(=C/c2ccc(Cl)cc2)Sc2scc(-c3cccc([N+](=O)[O-])c3)[n+]21 too.
**A:** 0.308 µM (active)

**Q:** Check N/N=c1\c2ccccc2c2ccc3c4ccccc4/c(=N\N)c3c12 too.
**A:** > 100 µM (inactive)

**Q:** Check COC1(OC)C2(Cl)C(Cl)=C(Cl)C1(Cl)C1COCC12 (stereo not given) too.
**A:** > 61.4 µM (inactive)

**Q:** Check CC(C)(C)OC(=O)NCCC(=O)NC1(c2cc3ccccc3s2)CCCCC1 too.
**A:** 16.7 µM (inactive)
